Reference for the values: patent US20030148956A1

# assay-target: corticotropin releasing factor 1 receptor
# run-description: cell-based or functional assay
Ends that are not written are not given here.
metric-name: CRF1R EC50 (nM)

>>> quantitative_result("ZGPPISIDLPYWLLRKMIEIEKQEKEKQQAANNARLLARI (C-terminal amide) [SEQ ID NO 289]")
1000
>>> quantitative_result("NDDPPISIDLPQYLLRNMIEMARIENEREQAGLNAKYLAEV-NH2 [SEQ ID NO 265]")
1000
>>> quantitative_result("ZGPPISIDLPIALLRKMIEIEKQEKEKQQAANNRLLLDTI (not fully specified; C-terminal amide) [SEQ ID NO 306]")
608
>>> quantitative_result("DNPSLSIDLPLILLRTLLELEKTQSQRERAEQNARIFDRV-NH2 [SEQ ID NO 337]")
1000
